Source: patent US20250326777A1

# system name: UniProtKB Q96LA9
# method summary: MRGPRX4 antagonist calcium (FLIPR, Fluo-8) assay in HEK293T cells stably expressing human MRGPRX4, agonist 0.2 μM deoxycholic acid-3-phosphoric acid
# condition context: HEK293T cells stably expressing human MRGPRX4; antagonist mode; top conc. 30 μM, ten 3-fold serial dilutions; C may also mean <40% inhibition at 2 μM; read-out: Antagonist activity (IC50 class)
pIC50: −log10 of the molar value.
readout type: pIC50

- O=C(O)c1cccc(C2Cc3cc(C(F)(F)F)ccc3O2)c1F (stereo not shown) [Example 52]: > 6.00
- Cn1c(-c2ccc(C(=O)O)cc2)cc2cccc(-c3ccccc3)c21 [Example 25]: < 5.00
- O=C(O)c1ccc(-c2cc3ccc(C(F)(F)F)cc3n2-c2ccccc2)cc1F [Example 35]: < 5.00
- O=C(O)c1cccc(C2Cc3cc(C(F)(F)F)ccc3O2)c1F (stereo not shown) [Example 87]: < 5.00
- Cn1c(-c2cccc(C(=O)O)c2)cc2ccc(C#N)cc21 [Example 7]: < 5.00

Prompt: Quick one: pIC50 for CCCn1c(-c2ccc(C(=O)O)cc2)cc2ccc(S(C)(=O)=O)cc21 [Example 24] ?
Response: < 5.00

Prompt: Quick one: pIC50 for NC(=O)c1cccc(C2Cc3cc(C(F)(F)F)ccc3O2)c1F (stereo not shown) [Example 73] ?
Response: < 5.00

Prompt: Quick one: pIC50 for Cn1c(-c2ccc(C(=O)O)cc2)cc2c(-c3ccccc3)cccc21 [Example 22] ?
Response: < 5.00

----------
# IC50 per entry
# system name: human MRGPRX4 (Homo sapiens, UniProt Q96LA9)
# Sequence (Q96LA9 whole entry): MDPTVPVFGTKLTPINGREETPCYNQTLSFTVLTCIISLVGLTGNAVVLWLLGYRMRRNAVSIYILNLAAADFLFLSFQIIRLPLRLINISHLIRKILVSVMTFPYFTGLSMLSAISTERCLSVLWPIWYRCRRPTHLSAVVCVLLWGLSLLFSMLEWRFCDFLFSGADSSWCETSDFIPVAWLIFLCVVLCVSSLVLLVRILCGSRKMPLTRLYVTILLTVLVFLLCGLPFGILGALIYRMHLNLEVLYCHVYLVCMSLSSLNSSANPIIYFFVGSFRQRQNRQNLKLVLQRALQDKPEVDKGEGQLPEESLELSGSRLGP
# method summary: MRGPRX4 antagonist calcium (FLIPR, Fluo-8) assay in HEK293T cells stably expressing human MRGPRX4, agonist 0.2 μM deoxycholic acid-3-phosphoric acid
# condition context: HEK293T cells stably expressing human MRGPRX4; antagonist mode; top conc. 30 μM, ten 3-fold serial dilutions; C may also mean <40% inhibition at 2 μM; read-out: Antagonist activity (IC50 class)

Sample answers from the record:
• Cn1c(-c2ccc(C(=O)O)cc2)c(F)c2ccc(C(F)(F)F)cc21 [Example 37] = > 10 µM
• Cc1c(C(=O)O)cccc1C1Cc2cc(C(F)(F)F)ccc2O1 (stereo not shown) [Example 68] = > 10 µM

Prompt: Quick one: IC50 for N#Cc1cc(-c2nnn[nH]2)cc(C2Cc3cc(C(F)(F)F)ccc3O2)c1 (stereo not shown) [Compound 101] ?
Response: < 1 µM

Prompt: Quick one: IC50 for O=C(O)c1cccc([C@@H]2Cc3cc(C(F)(F)F)ccc3O2)c1F [Compound 52A] ?
Response: < 1 µM

Prompt: Quick one: IC50 for O=C(O)c1cc(F)cc(C2Cc3cc(C(F)(F)F)ccc3O2)c1 (stereo not shown) [Example 57] ?
Response: 1 to 10 µM

Prompt: Quick one: IC50 for O=C(O)c1cccc([C@H]2Cc3cc(C(F)(F)F)ccc3O2)c1F [Compound 52B] ?
Response: > 10 µM

Prompt: Quick one: IC50 for Cc1cc(-c2nnn[nH]2)c(F)c(C2Cc3cc(C(F)(F)F)ccc3O2)c1 (stereo not shown) [Compound 99] ?
Response: < 1 µM

----------
# system name: human MRGPRX4 (Homo sapiens, UniProt Q96LA9)
# method summary: MRGPRX4 antagonist calcium (FLIPR, Fluo-8) assay in HEK293T cells stably expressing human MRGPRX4, agonist 0.2 μM deoxycholic acid-3-phosphoric acid
# condition context: HEK293T cells stably expressing human MRGPRX4; antagonist mode; top conc. 30 μM, ten 3-fold serial dilutions; C may also mean <40% inhibition at 2 μM; read-out: Antagonist activity (IC50 class)
readout type: IC50

Prompt: Quick one: IC50 for N#Cc1ccc2c(c1)CC(c1cccc(C(=O)O)c1F)O2 (stereo not drawn) [Example 80] ?
Response: > 10 µM

Prompt: Quick one: IC50 for O=C(O)c1ccc(-c2cc3ccc(C(F)(F)F)cc3n2C2CCCCC2)cc1 [Example 29] ?
Response: 1 to 10 µM

Prompt: Quick one: IC50 for O=C(O)c1ccc(C2Cc3cc(C(F)(F)F)ccc3O2)cc1 (stereo not drawn) [Example 61] ?
Response: > 10 µM

Prompt: Quick one: IC50 for CCCn1c(-c2ccc(C(=O)O)cc2)cc2ccc(OC(F)(F)F)cc21 [Example 21] ?
Response: > 10 µM

Prompt: Quick one: IC50 for CN1c2cc(C(F)(F)F)ccc2CC1c1ccc(C(=O)O)cc1 (stereo not drawn) [Example 40] ?
Response: > 10 µM

----------
# IC50 per entry
# system name: human MRGPRX4 (Homo sapiens)
# method summary: MRGPRX4 antagonist calcium (FLIPR, Fluo-8) assay in HEK293T cells stably expressing human MRGPRX4, agonist 0.2 μM deoxycholic acid-3-phosphoric acid
# condition context: HEK293T cells stably expressing human MRGPRX4; antagonist mode; top conc. 30 μM, ten 3-fold serial dilutions; C may also mean <40% inhibition at 2 μM; read-out: Antagonist activity (IC50 class)

Sample answers from the record:
* CCCn1c(-c2ccc(C(=O)O)cc2F)cc2ccc(C(F)(F)F)cc21 | < 1 µM
* O=C(O)c1ccc(-c2cc3ccc(C(F)(F)F)cc3n2Cc2ccccc2)cc1 | > 10 µM
* O=C(O)c1cccc(C2Cc3cc(F)ccc3O2)c1F (centres unmarked) | > 10 µM
* O=C(O)c1ccc(-c2cc3ccc(C(F)(F)F)cc3n2C2CCCC2)c(F)c1 | < 1 µM

Prompt: Quick one: IC50 for O=C(O)c1cccc(-c2cc3cc(C(F)(F)F)ccc3o2)c1 ?
Response: > 10 µM

----------
# pIC50 per entry
# system name: UniProt Q96LA9
# method summary: MRGPRX4 antagonist calcium (FLIPR, Fluo-8) assay in HEK293T cells stably expressing human MRGPRX4, agonist 0.2 μM deoxycholic acid-3-phosphoric acid
# condition context: HEK293T cells stably expressing human MRGPRX4; antagonist mode; top conc. 30 μM, ten 3-fold serial dilutions; C may also mean <40% inhibition at 2 μM; read-out: Antagonist activity (IC50 class)
# Description: HEK293T cells stably expressing human MRGPRX4 were cultured in DMEM medium supplements with 10% FBS, 100 U/mL penicillin-streptomycin, 20 mM HEPES and 1 μg/mL puromycin at 37° C. with 5% (v/v) CO2. One day before test, the cells were detached using TrypLE™ Express and counted using cell counter. […] The plate was read for 160 sec with 1 sec interval to obtain data of antagonist mode in FLIPR. […]
pIC50: −log10 of the molar value.

Sample answers from the record:
- Cn1c(-c2ccc(C(=O)O)cc2)cc2ccc(C#N)cc21: < 5.00
- O=C(O)c1cc(C2CCCC2)cc(C2Cc3cc(C(F)(F)F)ccc3O2)c1 (centres unmarked): < 5.00
- O=C(O)c1cc(C2CC2)cc(C2Cc3cc(C(F)(F)F)ccc3O2)c1 (centres unmarked): 5.00 to 6.00

Prompt: Quick one: pIC50 for O=C(O)c1cccc(C2Cc3c(cccc3C(F)(F)F)O2)c1F (centres unmarked) ?
Response: < 5.00

Prompt: Quick one: pIC50 for O=C(O)c1ccc(-c2nc3c(C(F)(F)F)c(F)ccc3o2)cc1F ?
Response: < 5.00

----------
# inhibition at 0.5 µM per entry
# system name: human MRGPRX4 (Homo sapiens)
# Construct: expressed in transfected cells
# method summary: MRGPRX4 antagonist calcium (FLIPR, Fluo-8) assay in HEK293T cells stably expressing human MRGPRX4, agonist 0.2 μM deoxycholic acid-3-phosphoric acid
# Assay type: cell-based
# condition context: HEK-293T; single concentration 0.5 μM; HEK293T cells stably expressing human MRGPRX4
Just the number in %, nothing appended.

Sample answers from the record:
- FC(F)(F)c1ccc2c(c1)CC(c1cc(-c3nnn[nH]3)cc(C3CC3)c1)O2 (stereo not shown): 27
- Cc1ccc2c(c1)CC(c1cccc(-c3nnn[nH]3)c1F)O2 (stereo not shown): 8.6
- FC(F)(F)c1ccc2c(c1)CC(c1cccc(-c3nnn[nH]3)c1)O2 (stereo not shown): 24

Now let's try a different one.
Prompt: Quick one: inhibition at 0.5 µM for Fc1c(-c2nnn[nH]2)cccc1C1Cc2cc(OC(F)(F)F)ccc2O1 (stereo not shown) ?
Response: 3.7

----------
# system name: human MRGPRX4 (Homo sapiens, UniProt Q96LA9)
# method summary: MRGPRX4 antagonist calcium (FLIPR, Fluo-8) assay in HEK293T cells stably expressing human MRGPRX4, agonist 0.2 μM deoxycholic acid-3-phosphoric acid
# condition context: HEK293T cells stably expressing human MRGPRX4; antagonist mode; top conc. 30 μM, ten 3-fold serial dilutions; C may also mean <40% inhibition at 2 μM; read-out: Antagonist activity (IC50 class)
pIC50: −log10 of the molar value.
readout type: pIC50

* O=C(O)c1ccc(-c2cc3ccc(C(F)(F)F)cc3n2C2CCCC2)cc1 [Example 27] | 5.00 to 6.00
* O=C(O)c1ccc(-c2cc3ccc(C(F)(F)F)cc3n2-c2ccccc2)cc1 [Example 34] | 5.00 to 6.00
* O=C(O)c1cc(-c2nc3c(C(F)(F)F)c(Cl)ccc3o2)ccc1F [Example 45] | < 5.00
* O=C(O)c1cc(-c2ccccc2)cc(C2Cc3cc(C(F)(F)F)ccc3O2)c1 (centres unmarked) [Example 64] | < 5.00

Now let's try a different one.
Prompt: Quick one: pIC50 for O=C(O)c1cc(-c2nc3cc(C(F)(F)F)c(Cl)cc3o2)ccc1F [Example 42] ?
Response: < 5.00
